STUDY_TARGET: GABARAP, purified (human, UniProt O95166 1-117)
Sequence (O95166 whole entry): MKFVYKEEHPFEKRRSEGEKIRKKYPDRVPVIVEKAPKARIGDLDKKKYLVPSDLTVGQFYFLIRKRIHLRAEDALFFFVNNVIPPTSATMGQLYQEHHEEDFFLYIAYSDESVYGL
EXPERIMENT: BLI
Where no end group is shown, it is not given here.

BINDER	Kd, µM
DFGGLGEEAEFVEVEPEAKQEILE (also: biotinylated, position not given here) [biotinylated SAMM50 LIR peptide (residues 18–41)]	23.9
